Provenance of the data: paper PMC8465852

Target: T1, KlIxr1 (Kluyveromyces lactis, UniProt Q6CMQ4 1-464)
T1 sequence: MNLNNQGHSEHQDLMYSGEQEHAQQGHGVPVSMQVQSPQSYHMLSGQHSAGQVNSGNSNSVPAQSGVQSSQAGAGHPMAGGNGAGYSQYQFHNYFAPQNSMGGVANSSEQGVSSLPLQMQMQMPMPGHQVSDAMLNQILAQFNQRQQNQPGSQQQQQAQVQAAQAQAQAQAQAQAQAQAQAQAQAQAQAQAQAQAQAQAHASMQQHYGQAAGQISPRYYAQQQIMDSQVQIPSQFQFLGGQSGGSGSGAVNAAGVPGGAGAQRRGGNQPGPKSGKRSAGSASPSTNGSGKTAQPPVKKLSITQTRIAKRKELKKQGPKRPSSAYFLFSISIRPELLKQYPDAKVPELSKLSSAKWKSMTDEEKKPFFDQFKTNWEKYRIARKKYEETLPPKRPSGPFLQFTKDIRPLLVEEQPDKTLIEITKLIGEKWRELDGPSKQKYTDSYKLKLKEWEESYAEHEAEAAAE
Assay: fluorescence anisotropy; 100 nM DNA; FA: 10 mM Tris-HCl pH 8.0, 100 mM KCl, 2 mM DTT, 1 mM EDTA, 500 ug/mL BSA, 25 C, 100 nM DNA; EMSA: 4 C 30 min, 500 nM DNA, 1 ug protein, 1 ug calf thymus DNA, buffer by reference
Details: protein: recombinant; tags: N-terminal 6xHis; label: 5'-FAM on forward strand (AJVV050f*); blunt
pKd: −log10 of the molar value.
measurement type: pKd

>>> df
                                     binder  measured_result
0  HEM13B (dsDNA) DNA 1: TGGCCCAGCCTCTATTTCTCTCGTACCGGT DNA 2: ACCGGTACGAGAGAAATAGAGGCTGGGCCA             6.81
